These data points were gathered from paper PMC7604516.

measured-target: (UniProt A0A7Y9BFS0)
observable: pKd
Please report pKd as the negative decimal logarithm of the molar concentration, giving only the number.

Incoming: Need pKd of [O]=[Mo](=[O])([OH])[OH] [molybdate] , thanks.
Outgoing: 8.66

* * *

measured-target: N2E2 ModA
details: read-out: Molybdate / KD; 20 mM Tris pH 7.6, 90 mM NaCl, 25 °C; Na2MoO4 titrant; single site
observable: pKd
Please report pKd as the negative decimal logarithm of the molar concentration, giving only the number.

Incoming: API: value(readout=pKd, system=N2E2 ModA) for record [O]=[Mo](=[O])([OH])[OH] [molybdate]
Outgoing: 7.57
